// provenance: paper PMC4072508

Molecular target: T1, Mcl-1, Q07820
T1 chain: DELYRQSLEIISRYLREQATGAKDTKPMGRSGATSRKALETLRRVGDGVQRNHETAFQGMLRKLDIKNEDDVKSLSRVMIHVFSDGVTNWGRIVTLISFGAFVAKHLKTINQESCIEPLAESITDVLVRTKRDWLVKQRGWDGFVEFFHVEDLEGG
Assay: peptide SPOT array, c-Myc-tagged receptor at 1 uM or 100 nM, anti-c-Myc-Cy3
property.label: SPOT signal as a fraction of Bim BH3's signal on the same receptor and array

1. EKVLIFGGDILKFAGDALLALWRVER [ADCY10]
2. FSKREKLVEILRNILDERTMVFVETK [DDX4]
Data request: Kindly identify the item with the lower SPOT signal as a fraction of Bim BH3's signal on the same receptor and array figure among these two: 1 and 2 Response format: the label of the selected entry.
Data returned: 1
(1: 0.02, 2: 0.15)

A. LRGSGAWGLLLRRVGDDVLVHLLARC [TERT]
B. THFLDEEVKLIKKMLDHLTNLHRLGG [FTL]
C. SHALICISHWILGIGDRHLNNFMVAM [PRKDC]
Data request: Order these by SPOT signal as a fraction of Bim BH3's signal on the same receptor and array, descending, and give the full ranking. Lab note: final answer is the ordered label list.
Data returned: A, B, C
(A: 0.14, B: 0.05, C: 0.02)
